These measurements were taken from PubChem BioAssay (EPA / NIEHS).

Read-out: Tumor necrosis factor (Homo sapiens)
Test: BSK_BT_xTNFa: BioMAP Diversity Plus: BT Assay for Tumor necrosis factor alpha (TNF-alpha) Biomarker Activity (AID 2284230)
Details: primary human B cells with PBMC
The source made the active and inactive calls. Rule for the calls: active = hit-call score of the fitted dose curve at least 0.9, where 1 is the maximum; inactive = score below 0.9.
Outcomes: t for active, f for inactive

compound: Cc1cc(CCC(=O)OCCOCCOCCOC(=O)CCc2cc(C)c(O)c(C(C)(C)C)c2)cc(C(C)(C)C)c1O
class_name: f
--
compound: CC(=O)C1(C)CC2=C(CCCC2(C)C)CC1C (stereo not drawn)
class_name: t
--
compound: c1ccc(CCc2ccccc2)cc1
class_name: f
--
compound: CC(C)(N=C=O)c1cccc(C(C)(C)N=C=O)c1
class_name: f
--
compound: C=C(C)C(=O)OCCOCCOCCOCCOC(=O)C(=C)C
class_name: f
--
compound: IC(I)I
class_name: f
--
compound: C1=CC2C3C=CC(C3)C2C1 (stereo not drawn)
class_name: f
--
compound: CN(C)C(=S)SC(=S)N(C)C
class_name: t
--
compound: CN(c1nccc(=O)[nH]1)C1CCN(c2nc3ccccc3n2Cc2ccc(F)cc2)CC1
class_name: f
--
compound: O=C1c2ccccc2C(=O)c2c(O)ccc(O)c21
class_name: t
--
compound: CC(=O)Nc1ccc(C(=O)CCl)cc1
class_name: t
--
compound: c1ccc(Oc2ccccc2)cc1
class_name: f
--
compound: O=C1OC[C@H](Cc2cccc(O)c2)[C@H]1Cc1cccc(O)c1
class_name: f

----------
Target: Glucocorticoid receptor (Homo sapiens) (UniProt P04150)
Sequence (P04150 whole entry, looked up): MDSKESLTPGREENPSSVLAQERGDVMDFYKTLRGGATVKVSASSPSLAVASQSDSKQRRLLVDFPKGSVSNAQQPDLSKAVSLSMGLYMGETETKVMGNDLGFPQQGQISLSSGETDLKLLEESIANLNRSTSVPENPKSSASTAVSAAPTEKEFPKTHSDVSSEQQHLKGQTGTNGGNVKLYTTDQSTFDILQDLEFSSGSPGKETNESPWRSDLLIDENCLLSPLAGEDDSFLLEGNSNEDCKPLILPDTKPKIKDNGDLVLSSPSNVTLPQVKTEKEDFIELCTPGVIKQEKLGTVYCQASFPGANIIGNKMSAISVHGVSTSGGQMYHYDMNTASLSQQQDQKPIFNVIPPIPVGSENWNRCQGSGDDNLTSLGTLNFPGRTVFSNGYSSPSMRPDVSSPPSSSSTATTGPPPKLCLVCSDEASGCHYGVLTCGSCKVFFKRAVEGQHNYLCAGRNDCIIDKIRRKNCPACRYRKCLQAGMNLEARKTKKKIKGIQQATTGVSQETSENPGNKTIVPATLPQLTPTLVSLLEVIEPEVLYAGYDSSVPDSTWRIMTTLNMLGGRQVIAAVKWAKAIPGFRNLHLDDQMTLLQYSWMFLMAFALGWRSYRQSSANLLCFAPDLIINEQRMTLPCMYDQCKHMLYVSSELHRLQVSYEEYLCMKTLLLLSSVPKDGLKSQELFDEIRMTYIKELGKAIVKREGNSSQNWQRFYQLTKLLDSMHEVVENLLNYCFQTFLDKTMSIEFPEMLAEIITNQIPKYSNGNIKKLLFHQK
Experiment: NVS_NR_hGR: NovaScreen (NVS) Nuclear Receptor Binding Assay for human Glucocorticoid Receptor (GR) (AID 2283363)
Inconclusive results are not listed. Active and inactive are the calls of the source. How the source made its calls: active means hit-call score of the fitted dose curve at least 0.9, where 1 is the maximum; inconclusive means response in the unintended direction; inactive means score below 0.9.
Labels: yes (1) = active, no (0) = inactive

structure_smiles: CCOc1ccc(N=Nc2ccc(C=Cc3ccc(N=Nc4ccc(OCC)cc4)cc3S(=O)(=O)O)c(S(=O)(=O)O)c2)cc1
class_name: yes (1)
//
structure_smiles: Nc1ccc2cc(S(=O)(=O)O)cc(O)c2c1N=Nc1ccccc1C(F)(F)F
class_name: yes (1)
//
structure_smiles: COc1ccc(N=Nc2cc(C)c(N=Nc3ccc(S(=O)(=O)O)cc3)cc2OC)cc1
class_name: yes (1)
//
structure_smiles: Cc1ccc(S(=O)(=O)Oc2ccc(N=Nc3ccc(-c4ccc(N=Nc5c(O)ccc6cc(S(=O)(=O)O)cc(S(=O)(=O)O)c56)c(C)c4)cc3C)cc2)cc1
class_name: yes (1)
//
structure_smiles: CCCCCCCCC=CCCCCCCCC1=NCCN1CCO
class_name: yes (1)
//
structure_smiles: CCOc1ccc(NC(=O)CC(C)=O)cc1
class_name: yes (1)
//
structure_smiles: CCCCCCCCc1ccc(S(=O)(=O)O)cc1
class_name: yes (1)
//
structure_smiles: Cc1ccc(S(N)(=O)=O)cc1
class_name: no (0)

----------
Target: Peroxisome proliferator-activated receptor gamma (Homo sapiens) (UniProt P37231)
Sequence (P37231 whole entry, looked up): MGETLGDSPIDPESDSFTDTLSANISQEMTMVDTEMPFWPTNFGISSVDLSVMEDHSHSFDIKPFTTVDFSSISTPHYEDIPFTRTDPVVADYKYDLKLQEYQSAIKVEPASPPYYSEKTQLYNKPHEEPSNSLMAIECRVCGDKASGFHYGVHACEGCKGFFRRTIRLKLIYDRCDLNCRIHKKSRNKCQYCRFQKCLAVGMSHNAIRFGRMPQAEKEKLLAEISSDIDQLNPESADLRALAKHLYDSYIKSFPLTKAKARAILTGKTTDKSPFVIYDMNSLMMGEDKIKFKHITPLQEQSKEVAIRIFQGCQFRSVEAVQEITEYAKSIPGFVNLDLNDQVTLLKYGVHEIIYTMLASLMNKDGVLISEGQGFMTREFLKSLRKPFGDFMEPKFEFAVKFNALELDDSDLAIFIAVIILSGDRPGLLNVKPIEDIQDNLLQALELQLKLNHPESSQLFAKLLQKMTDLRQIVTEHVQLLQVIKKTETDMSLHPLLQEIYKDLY
Assay: ATG_PPARg_TRANS: Attagene TRANS-FACTORIAL HepG2 Assay for human Peroxisome Proliferator-activated Receptor-gamma (PPARg) (AID 2283007)
Records with an inconclusive call do not appear. Active and inactive are the calls of the source. Rule for the calls: active = hit-call score of the fitted dose curve at least 0.9, where 1 is the maximum; inconclusive = response in the unintended direction; inactive = score below 0.9.
Outcomes: active, inactive

compound: CCOC(=O)c1ccc(N)cc1
class_name: inactive

compound: O=c1c(O)c(-c2ccc(O)cc2)oc2cc(O)cc(O)c12
class_name: active

compound: C/C=C(\C)C(=O)OCCc1ccccc1
class_name: inactive

compound: CCCCC1CCC(O)CC1 (stereo not given)
class_name: inactive

compound: COc1ccccc1N=Nc1c(S(=O)(=O)O)cc2cc(S(=O)(=O)O)cc(NC(C)=O)c2c1O
class_name: inactive

compound: CN(c1nccc(=O)[nH]1)C1CCN(c2nc3ccccc3n2Cc2ccc(F)cc2)CC1
class_name: inactive

compound: CCOc1ccc(N=Nc2ccc(C=Cc3ccc(N=Nc4ccc(OCC)cc4)cc3S(=O)(=O)O)c(S(=O)(=O)O)c2)cc1
class_name: inactive

compound: O=C1NC2NC(=O)NC2N1 (stereo not given)
class_name: inactive

compound: CC1=C(Br)C(=O)C(Br)=C/C1=C(/c1ccccc1S(=O)(=O)O)c1cc(Br)c(O)c(Br)c1C
class_name: inactive

compound: CCC1CCCCC1
class_name: inactive

compound: Cc1cccc(Nc2ccccc2)c1
class_name: active

compound: C=CCCCCCCCCCC
class_name: inactive

compound: CCCCCCC(=O)c1ccccc1
class_name: active

compound: CCC(C)c1cc([N+](=O)[O-])cc([N+](=O)[O-])c1OC(=O)OC(C)C (stereo not given)
class_name: active

compound: C[Si]1(C)O[Si](C)(C)O[Si](C)(C)O1
class_name: inactive

compound: CC(C)(C)CC(C)(C)c1ccc(OCCOCC[N+](C)(C)Cc2ccccc2)cc1
class_name: inactive

compound: CCCCCCCCC=CCCCCCCCC1=NCCN1CCO
class_name: inactive

compound: CCCCCCCC(=O)OCC(O)CO (stereo not given)
class_name: inactive

compound: C[N+](C)(C)CCCCCC[N+](C)(C)C
class_name: inactive

compound: CCCCCCC(C)Nc1ccc(Nc2ccccc2)cc1 (stereo not given)
class_name: active

compound: C=CC(C)C#N (stereo not given)
class_name: inactive

compound: C=CC(=O)OCCC#N
class_name: active

compound: O=C1c2ccccc2C(=O)c2c(O)ccc(O)c21
class_name: active

compound: Cc1ccc2c(c1)C(=O)OC2=O
class_name: inactive

compound: Nc1ccc(NCCO)c([N+](=O)[O-])c1
class_name: inactive

compound: COC(=O)c1ccc([N+](=O)[O-])cc1
class_name: inactive

compound: COCCOC(=O)c1ccccc1C(=O)OCCOC
class_name: inactive

compound: COc1cc(Cl)c(OC)cc1N
class_name: inactive

compound: OC[C@H]1O[C@@H]2O[C@H]3[C@H](O)[C@@H](O)[C@@H](O[C@H]4[C@H](O)[C@@H](O)[C@@H](O[C@H]5[C@H](O)[C@@H](O)[C@@H](O[C@H]6[C@H](O)[C@@H](O)[C@@H](O[C@H]7[C@H](O)[C@@H](O)[C@@H](O[C@H]8[C@H](O)[C@@H](O)[C@@H](O[C@H]9[C@H](O)[C@@H](O)[C@@H](O[C@H]1[C@H](O)[C@H]2O)O[C@@H]9CO)O[C@@H]8CO)O[C@@H]7CO)O[C@@H]6CO)O[C@@H]5CO)O[C@@H]4CO)O[C@@H]3CO
class_name: inactive

compound: CCc1ccc(O)cc1
class_name: inactive

compound: CCCCC(CC)(CO)CO
class_name: inactive

compound: CCc1cc(Cc2cc(CC)cc(C(C)(C)C)c2O)c(O)c(C(C)(C)C)c1
class_name: active

compound: CC(=O)Nc1ccc(C(=O)CCl)cc1
class_name: active

compound: CC(C)C[C@H](NC(=O)OCC1c2ccccc2-c2ccccc21)C(=O)O
class_name: active

compound: OCc1cccc(Oc2ccccc2)c1
class_name: active

compound: CCO/C=C1\N=C(c2ccccc2)OC1=O
class_name: inactive

compound: NC(=S)NNC(N)=S
class_name: inactive

compound: CC(=O)O[C@@H]1CC2CCC1(C)C2(C)C (stereo not given in full)
class_name: inactive

compound: COc1ccc(N=Nc2cc(C)c(N=Nc3ccc(S(=O)(=O)O)cc3)cc2OC)cc1
class_name: active

compound: CCCCC1(COC(=O)CCC(=O)O)C(=O)N(c2ccccc2)N(c2ccccc2)C1=O
class_name: inactive

compound: CC(C)=CCCC(C)CC(=O)O (stereo not given)
class_name: inactive

compound: O=c1[nH]c(=O)c2cn[nH]c2[nH]1
class_name: inactive

compound: C=C(C)C(=O)OCCOCCOCCOC(=O)C(=C)C
class_name: inactive

compound: C=Cc1ccncc1
class_name: active

compound: CCCCCCOC(=O)C(C)C
class_name: inactive

compound: O=Cc1ccccc1S(=O)(=O)O
class_name: inactive

compound: CSc1c(Cl)c(Cl)c(Cl)c(Cl)c1Cl
class_name: active

compound: CCCCCCCCCCCC(=O)OC[C@@H](O)[C@H]1OC[C@H](O)[C@H]1O
class_name: inactive

compound: CC/C=C\CC/C=C/CO
class_name: active

compound: O=C(O)CCCCCCCCCCCC(=O)O
class_name: inactive

compound: CCOCCOCCOCC
class_name: inactive

compound: O=C(Nc1ccc2c(O)c(N=Nc3ccc(N=Nc4ccc(S(=O)(=O)O)cc4)cc3)c(S(=O)(=O)O)cc2c1)c1ccccc1
class_name: inactive

compound: CCOc1ccc(NC(=O)CC(C)O)cc1 (stereo not given)
class_name: inactive

compound: BrCc1cccc(Oc2ccccc2)c1
class_name: active

compound: CC1C2CC(CC2C2CCCC(O)C2)C1(C)C (stereo not given)
class_name: inactive
